Items are presented alongside their recorded protein stability index.
B1: HSP90AB1 (parent)
chain: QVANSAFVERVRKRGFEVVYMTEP

variants of: B1; assay: protein stability index of a GFP-peptide fusion (GPS, HEK-293T) (PSI 1-6); higher = more stable; conditions: c terminus: a fixed tail appended;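 further: lentivirally expressed fusions sorted by FACS into six bins by GFP to DsRed ratio, PSI derived from sequencing read proportions per bin multiplied by bin number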

sequence_entry | protein stability index
QVANSAFVERVRKRGFMVVYMTEP [E17M] | 2.15
QVANSAFVERVRKRCFEVVYMTEP [G15C] | 1.79
QVANSAFVERVRKRAFEVVYMTEP [G15A] | 2.01
QVVNSAFVERVRKRGFEVVYMTEP [A3V] | 2.43
QVAFSAFVERVRKRGFEVVYMTEP [N4F] | 2.16
QVASSAFVERVRKRGFEVVYMTEP [N4S] | 2.21
QVANSAFVERVRARGFEVVYMTEP [K13A] | 2.42
QVANSAFVEGVRKRGFEVVYMTEP [R10G] | 2.17
QVANSAFVERVRKRGFEVSYMTEP [V19S] | 2.68
QVANSAFVERVRKRGFGVVYMTEP [E17G] | 2.88
QVANSAFVERVVKRGFEVVYMTEP [R12V] | 2.16
QVANSAFVERVRKRGGEVVYMTEP [F16G] | 3.28
QVANSAFVERVRKLGFEVVYMTEP [R14L] | 2.03
QVANSAFVERVRKRGFEVVYMFEP [T22F] | 1.68
QVANSAFVERVRGRGFEVVYMTEP [K13G] | 1.34
QVANSAFVHRVRKRGFEVVYMTEP [E9H] | 2.27
QVANSAFVERVRKRGFEVVYMTYP [E23Y] | 1.66
QVANSAFVERVRKRGFEDVYMTEP [V18D] | 2.88
QVANSAFVERVNKRGFEVVYMTEP [R12N] | 2.63
QVANSAFVERVRKRGCEVVYMTEP [F16C] | 2.71
QVANSAFVEPVRKRGFEVVYMTEP [R10P] | 2.57
QVANSAFVERVRKRGFCVVYMTEP [E17C] | 2.44
QVANSAFVERVRKRGFEVEYMTEP [V19E] | 3.43
QWANSAFVERVRKRGFEVVYMTEP [V2W] | 1.94
QVANSAFVERVRKRGFEVVYMTSP [E23S] | 2.54
QVANSAFVERVRKRGFEVVYMTED [P24D] | 3.18
QVANSAFVEIVRKRGFEVVYMTEP [R10I] | 1.94
QVTNSAFVERVRKRGFEVVYMTEP [A3T] | 2.93
QVANSAFVERVPKRGFEVVYMTEP [R12P] | 2.74
QVANSAFVERVRKSGFEVVYMTEP [R14S] | 2.26
QVANSPFVERVRKRGFEVVYMTEP [A6P] | 2.81
QVANSAFVERVRKRGFEVFYMTEP [V19F] | 1.53
QVANDAFVERVRKRGFEVVYMTEP [S5D] | 2.59
QVANSAFVERSRKRGFEVVYMTEP [V11S] | 2.61
QVANSVFVERVRKRGFEVVYMTEP [A6V] | 1.57
QVANSAFVEEVRKRGFEVVYMTEP [R10E] | 2.28
QVANSAFVERVRKRGFEVVCMTEP [Y20C] | 2.99
QVYNSAFVERVRKRGFEVVYMTEP [A3Y] | 2.35
QVADSAFVERVRKRGFEVVYMTEP [N4D] | 3.01
QVANYAFVERVRKRGFEVVYMTEP [S5Y] | 2.17
QVANSAFDERVRKRGFEVVYMTEP [V8D] | 3.46
QVANSAMVERVRKRGFEVVYMTEP [F7M] | 2.35
QVANSRFVERVRKRGFEVVYMTEP [A6R] | 2.71
QVANSAFVERVRKRGFEVVYATEP [M21A] | 2.11
QVANSAFVERVRKRGFEVGYMTEP [V19G] | 2.75
QPANSAFVERVRKRGFEVVYMTEP [V2P] | 2.85
